# Assayed target: GLP-1R (Homo sapiens)
# Sequence (P43220 24-463): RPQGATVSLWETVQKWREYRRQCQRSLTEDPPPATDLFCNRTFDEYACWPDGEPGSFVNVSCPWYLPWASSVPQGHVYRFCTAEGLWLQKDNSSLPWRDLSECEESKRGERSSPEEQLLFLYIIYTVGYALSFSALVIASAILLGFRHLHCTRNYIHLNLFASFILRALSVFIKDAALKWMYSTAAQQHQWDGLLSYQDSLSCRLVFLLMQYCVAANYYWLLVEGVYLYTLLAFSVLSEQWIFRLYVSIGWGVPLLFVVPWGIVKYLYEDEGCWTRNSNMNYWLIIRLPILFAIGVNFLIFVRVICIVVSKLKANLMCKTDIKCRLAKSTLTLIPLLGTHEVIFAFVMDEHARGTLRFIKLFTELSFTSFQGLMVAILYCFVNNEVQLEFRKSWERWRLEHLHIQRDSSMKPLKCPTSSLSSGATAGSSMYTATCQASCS
# Procedure text: GLP-1R activation cAMP assay (Assay 1 or Assay 2)
# Measurement conditions: cAMP increase in CHO cells stably expressing GLP-1R; compounds run on one of the two cAMP assays
Property measured: EC50 (nM)
Express it in nM; write the number only.

Example entries begin here.
- Compound: "COCCn1c(Cc2cc(F)c(-c3cccc(OCc4ccc(C#CC5CN(C(=O)OC)C5)cc4F)n3)cc2F)nc2ccc(C(=O)O)cc21 [Example 235]"
  Assayed target: "GLP-1R (Homo sapiens)"
  EC50 [nM]: 1.1
- Compound: "COc1nnc(COc2cccc(-c3cc(F)c(Cc4nc5ccc(C(=O)O)cc5n4CC4(C(F)F)CC4)cc3F)n2)s1 [Example 276]"
  Assayed target: "GLP-1R (Homo sapiens)"
  EC50 [nM]: 1.31
- Compound: "CNC(=O)c1cc(Cl)c(COc2cccc(-c3cc(F)c(Cc4nc5c(F)cc(C(=O)O)cc5n4CC4(CF)CC4)c(F)c3F)n2)cn1 [Example 398]"
  Assayed target: "GLP-1R (Homo sapiens)"
  EC50 [nM]: 0.017
- Compound: "CNC(=O)c1ccc(COc2cccc(-c3cc(F)c(Cc4nc5ccc(C(=O)O)cc5n4C[C@@H]4CCO4)cc3F)n2)cn1 [Example 43]"
  Assayed target: "GLP-1R (Homo sapiens)"
  EC50 [nM]: 0.3
- Compound: "Cn1cncc1COc1cccc(-c2cc(F)c(Cc3nc4ccc(C(=O)O)cc4n3C[C@@H]3CCO3)cc2F)n1 [Example 178]"
  Assayed target: "GLP-1R (Homo sapiens)"
  EC50 [nM]: 23.6

Kindly review the next compound as well.
INPUT: Consider the compound Cc1cc(Cc2nc3c(F)cc(C(=O)O)cc3n2[C@@H]2COCC2(C)C)c(Cl)cc1-c1ccc(F)c(OCc2ncc(C(C)(F)F)s2)n1 [Example 426] . State its measured EC50.
OUTPUT: 0.931
